Tested on: MS2 coat protein
assayName: apparent KD of MS2 coat protein, switch ON state; designed switch direction (-1 OFF switch, 1 ON switch): -1; higher = weaker reporter binding
settings: FMN input: 0 or 200 uM; Eterna round: R93 (includes R88 designs)
reportedEndpoint: apparent KD of MS2 coat protein
Include the unit after the number when you answer.

AAAAAGGGAGGAUAUACAGGAGGUAAGGUCAAAAAAAAAAAACAUGAGGAUCACCCAUGUAGAAGGUUUAAAAA [Ecls2-V] :: 25.8 nM

Ask: Name the recorded apparent KD of MS2 coat protein of the sequence listed here: AAAAAACAUGAGGAUCACCCAUGUCAGGAUAUCGUUGAAAAAAAAAAAAAAAAAAAAGCGAGAAGGGACACGAA [exclusion1-cac3]
Reply: 60.7 nM

Ask: Name the recorded apparent KD of MS2 coat protein of the sequence listed here: AAUGGUGCAGGAUAUACAUGAGGAUCACCCAUGUACAUCAGACAUAUGGUCGAAACAUGUAGAAGGGCACCAAA [Ex 3May 55]
Reply: 107 nM

Ask: Name the recorded apparent KD of MS2 coat protein of the sequence listed here: UCACACCUAGGAUAUACAUGAGGAUCACCCAUGUGGCACUCCGCAGGCAGUGUUCCCAGUAGAAGGAGGACACG [Ricere]
Reply: 27.8 nM

====

Each entry below carries its recorded apparent KD of MS2 coat protein.
Tested on: MS2 coat protein
assayName: apparent KD of MS2 coat protein; designed switch direction (-1 OFF switch, 1 ON switch): 1; higher = weaker reporter binding
settings: Eterna round: R98; input ligand: none
Record the value in nM, omitting the unit from your answer.

Ask: Look up and report apparent KD of MS2 coat protein, with MS2 coat protein as system, for GCACUCAAGUUAGGAUAUGGAUCGGAAACCGAUCCAGAAGGAACACGAAAACAUGAGCAUCAGCCGUGUUCCAGAAACGAGUGC [SameSame 14 - Jieux - Same State NG 1]
Reply: 917

====

Tested on: MS2 coat protein
assayName: apparent KD of MS2 coat protein; designed switch direction (-1 OFF switch, 1 ON switch): 1; higher = weaker reporter binding
settings: Eterna round: R98; input ligand: FMN 200 uM
Each entry below carries its recorded apparent KD of MS2 coat protein.
Record the value in nM, omitting the unit from your answer.

Ask: Name the recorded apparent KD of MS2 coat protein of the sequence listed here: CGAGACACUUGAGGAUAUGCUCAGGAUAACUGAGCAGAAGGCAGGAAAACCUGAGGAUCACCCAGGUAACUGGAAAGUCUCGAA [Same State NG1 - A3C, U17G Submission 5F-G46A]
Reply: 16.9

Ask: Name the recorded apparent KD of MS2 coat protein of the sequence listed here: GGUCCAUCAUGAGGAUAUGGCACCUUAUUGGUGCCAGAAGGCAUGUCUUUUGACAUGAGGAUCACCCAUGUAAUAAAUUGGACC [Pyrimidine booster 6]
Reply: 130

Ask: Name the recorded apparent KD of MS2 coat protein of the sequence listed here: UAUAUAUGGUGAGGAUAUGCAAAGGAUCACCUUGUAGAAGGCAUCAGGGUAGAAGGUGCAAGGAUCACCUGUAAGGAUAUAUCC [pwkr2 ssNG1 DX.25]
Reply: 447

====

Tested on: MS2 coat protein
assayName: apparent KD of MS2 coat protein; designed switch direction (-1 OFF switch, 1 ON switch): 1; higher = weaker reporter binding
settings: Eterna round: R95; input ligand: none
Each entry below carries its recorded apparent KD of MS2 coat protein.
Record the value in µM, omitting the unit from your answer.

ACCCAAAGUAUAUGGGAACAGGCUUUUUAACAUGAGGAUCACCCAUGUACUCGUCUUAUAAGCAGUCGAAAGACUGC [Sensor 100 - 2] (puzzle: Sensor for hsa-mir-208a) :: 0.906
AACUAUCUAUCUGAGGAUAUCAUGAAAUAAACAUGAGGAUCACCCAUGUGCAGGAAAACUGCAUAUGAGAAGGCAGAUAGAUUGA [salish99_ss2_r3_021] (puzzle: Same State 2) :: 2
CUGCAACAUGAGGAUCACCCAUGUAACCCAAUUAUAGGAUAUGUGAUGGUGAUCGACAUGACAGAAGGGUGAUUGG [Arinra] (puzzle: Same State 1) :: 0.0464
AGUCCAGCCAAAGCUGGACAAAAGCAUGUACAUGAGGAUCACCCAUGUUCAUGUACAAGCUUUUUGCAAGUCAAAAG [Mat - hsa-mir-208a - Mod of JL - 77] (puzzle: Sensor for hsa-mir-208a) :: 0.498

Ask: Name the recorded apparent KD of MS2 coat protein of the sequence listed here: GACAUUCUAUCUCAGGAUAUCAUGUCAAAGACAUGAGGAUCACCCAUGUACCAGGAAACUGGUUAUGAGAAGGGAGAUAGAAUGG [Mat - Same State 2 - Mod - D47] (puzzle: Same State 2)
Reply: 0.221

Ask: Name the recorded apparent KD of MS2 coat protein of the sequence listed here: CGUUCUUACUCGGUACGGUGAGUAGAGGAACAUGAGGAUCACCCAUGUUUGAGCUUUUUGCUCGUGAUUAACAGUUG [JR_SHM208a_Sub015] (puzzle: Sensor for hsa-mir-208a)
Reply: 0.149

====

Test system: MS2 coat protein
assayName: apparent KD of MS2 coat protein; designed switch direction (-1 OFF switch, 1 ON switch): 1; higher = weaker reporter binding
settings: input ligand: FMN 200 uM
Each entry below carries its recorded apparent KD of MS2 coat protein.
Include the unit after the number when you answer.

Look over these answered cases.
GGAGCCGGCCUAGGAUAUUUCAUAAAAUAACAUGAGGAUCACCCAUGUAGGCCAGAAGGCCUUGGGAAGAAGGAGGUCGGCUCC [Loop Effect - U28] (Eterna round: R96, puzzle: Same State NG 2) :: 13.4 nM
CUGCAACAUGAGGAUCACCCAUGUAACCCAAUUAUAGGAUAUGUGAUGGUGAUCGACAUGACAGAAGGGUGAUUGG [Arinra] (Eterna round: R96, puzzle: Same State 1) :: 174 nM
CAAGAAAACGCAGGAUAUACCCGGACAACCCGGGUAGAAGGGUGACACAUGAGGAUCACCCAUGUACAUGGCAAUAACCAUGGA [Sobiais] (Eterna round: R96, puzzle: Same State NG 1) :: 15.2 nM
GGCCAGAGUCAAGGAUAUGCUACCGUUUCGGUAGCAGAAGGUGAUCACAUGAGGAUCACCCAUGUAUACGCUGGAAAGCGGGCC [JL SSNG1 3.64] (Eterna round: R96, puzzle: Same State NG 1) :: 452 nM
GCCGUAUAAACAUGAGGAUCACCCAUGUGCGCGAGAGCGGAUGAGGAUAUCGAUGGGUUUCCCGUCGAGAAGGCGUGGGUCGGC [JL SSNG3 3.97] (Eterna round: R96, puzzle: Same State NG 3) :: 31 nM
GAGGGCGAAAGCAACAUGAGGAUCACCCAUGUCCUCGGAGGUCAGGAUAUCCGGCGGUAGCCGAAGGAGAAGGGACGGUGAACC [AK SSNG3-V2-32.1] (Eterna round: R96, puzzle: Same State NG 3) :: 180 nM
CUGGCGCGCACAGGAUAUGCGGCCGGCAAGGUGGCAGAAGGGUGAUAAACAGACGACAUGAGGAUCACCCAUGUCGCAAAGAAU [Arsobe] (Eterna round: R96, puzzle: Same State NG 1) :: 214 nM
GAAUUAAGAGUAGGAUAUGUGGGCGAGCUGCCACCCACAUGAGGAUCACCCAUGUAUGGACACUCACAGAAGGGCUUAUUCAAC [Eternabot solution 37] (Eterna round: R96, puzzle: Same State NG 2) :: 68.8 nM
UUGUGUUUGCGAGGAUAUCGUUUGUUGAAGUUACGAGAAGGCGCUCUCUUUACAUGAGGAUCACCCAUGUCUUUGAUGCAUGAU [JR_SSNG1_Sub072] (Eterna round: R96, puzzle: Same State NG 1) :: 81.1 nM
GAUCGUUUGAUAGGAUAUCGCUAUACAUGAGGAUCACCCAUGUUUACCACGCUGGUUUUUCAUACCGAGAAGGAUUCUGAUGAA [salish99_SSNG02_r04_010] (Eterna round: R96, puzzle: Same State NG 2) :: 27.5 nM

Ask: Look up and report apparent KD of MS2 coat protein, with MS2 coat protein as system, for GUGGUCAGACAUGAGGAUCACCCAUGUGGAAUAAAUAACGGUGAGGAUAUGGAAUAUAGGAUAUACUAGAAGGCAUGAUUGGUG (Eterna round: R96, puzzle: Same State NG 3)
Reply: 91.5 nM

Ask: Look up and report apparent KD of MS2 coat protein, with MS2 coat protein as system, for GUGGUCAGACAUGAGGAUCACCCAUGUGGAAUAAAUAACGGACAGGAUAUUUAAUAUAGGAUAUAGAAGAAGGGUUGAUUGGUG (Eterna round: R96, puzzle: Same State NG 3)
Reply: 104 nM

Ask: Look up and report apparent KD of MS2 coat protein, with MS2 coat protein as system, for GCUACCAAUGAAGCCAACAUGAGGAUCACCCAUGUAUGUUGGUAGGAUAUCGUUUGCAAAGCAAACGAGAAGGGCUAAGGUAGC [Mat - Same State NG 3 - JL Mod - D75] (Eterna round: R96, puzzle: Same State NG 3)
Reply: 62.8 nM

Ask: Look up and report apparent KD of MS2 coat protein, with MS2 coat protein as system, for CUUUUUAAUGCAGGAUAUGAUCAACAUGAGGAUCACCCAUGUGGCGUUGUGAGUAGGGAGAGUGAUCAGAAGGGCGUCUCCUCG [SS-NG2-LRO09] (Eterna round: R96, puzzle: Same State NG 2)
Reply: 43.9 nM

Ask: Look up and report apparent KD of MS2 coat protein, with MS2 coat protein as system, for UGGCUGGUGCUAGGAUAUGCAUGAGGCCUCCUCGUAGAAGGAGCACGACAUGAGGAUCACCCAUGUGGCCGUCCGUGGACGGCU [salish99_SSNG1_r04_014] (Eterna round: R96, puzzle: Same State NG 1)
Reply: 45.4 nM

Ask: Look up and report apparent KD of MS2 coat protein, with MS2 coat protein as system, for AAUUAAGAUCAAGGAUAUCACGUCGUUUAGACGUGAGAAGGUGAUAAUUACAUGAGGAUCACCCAUGUAUAACAUGAAUUAAUU [SSNG1/9-B3] (Eterna round: R96, puzzle: Same State NG 1)
Reply: 25.5 nM

Ask: Look up and report apparent KD of MS2 coat protein, with MS2 coat protein as system, for AGACAUGAGGAUCACCCAUGUAUACACUAUAUCAGUGUAACAUAGGAUAUCCACCGCCAUGCUGUGGAGAAGGAUGAAACGGGC [Raerlaan] (Eterna round: R96, puzzle: Same State NG 3)
Reply: 211 nM

Ask: Look up and report apparent KD of MS2 coat protein, with MS2 coat protein as system, for AGAUGUUAAUUAGGAUAUGGGCACAUGAGGAUCACCCAUGUAUUUUCGAUGCUAUGUGGAGACGUCUAGAAGGGAUGGCUAACA [SameState NG2 #87] (Eterna round: R96, puzzle: Same State NG 2)
Reply: 198 nM
